Target: human μ opiate receptor (Homo sapiens)
Construct: purchased PerkinElmer Life Sciences, Zaventem, Belgium RB-HOM; host or cells: CHO-K1 cells (membrane preparation)
Sequence (P35372 whole entry): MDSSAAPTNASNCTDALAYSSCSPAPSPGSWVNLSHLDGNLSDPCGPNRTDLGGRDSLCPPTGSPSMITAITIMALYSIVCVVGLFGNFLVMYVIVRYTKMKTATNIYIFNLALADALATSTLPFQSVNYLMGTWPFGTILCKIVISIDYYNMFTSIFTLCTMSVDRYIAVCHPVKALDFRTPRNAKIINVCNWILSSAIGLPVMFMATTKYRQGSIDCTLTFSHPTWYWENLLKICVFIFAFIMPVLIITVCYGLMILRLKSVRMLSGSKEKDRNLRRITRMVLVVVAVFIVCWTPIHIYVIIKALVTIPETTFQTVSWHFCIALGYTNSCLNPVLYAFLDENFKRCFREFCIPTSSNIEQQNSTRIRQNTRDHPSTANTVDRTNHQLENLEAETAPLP
Test: Affinity for the human μ opiate receptor ([3H]-naloxone displacement, CHO-K1 receptor membrane preparation, SPA)
Format: binding
Conditions: test concentration of 1 μM
measured_parameter: μ (binding on the μ opioid receptor, % inhibition) (%)
# output: bare number, implied unit %

>>> recorded_number("Cc1cc(C)c(S(=O)(=O)N(C)CCOCC(=O)NCCC2CCC(C(c3ccc(F)cc3)N(C)C)CC2)c(C)c1 (stereo not shown)")
60

In: Request the reported μ (binding on the μ opioid receptor, % inhibition) associated with CN(C)C(c1ccc(F)cc1)C1CCC(NC(=O)COC2CCCCC2N(C)S(=O)(=O)c2ccc(Cl)c(Cl)c2)CC1 (stereo not shown)
Out: 73

In: Now the same for COc1cc(C)c(S(=O)(=O)N(C)CCOCC(=O)NCCC2CCC(C(c3ccc(Cl)cc3)N(C)C)CC2)c(C)c1C (stereo not shown)
Out: 62

In: Then this compound: COc1cc(C)c(S(=O)(=O)N2CCC(OCC(=O)NCCC3CCC(C(c4ccc(F)cc4)N(C)C)CC3)C2)c(C)c1 (stereo not shown)
Out: 43
